Kindly supply the reported relative viability values for the records listed here.
# Test system: NCI-H1355
# TEST SUMMARY: relative viability (nuclei count vs DMSO), 5 days (fraction); higher = more cells survive
# ASSAY SETUP: first compound 8 µM
// no unit, no text: just the number

// query State relative viability (NCI-H1355) of Nc1cccc2c1CN(C1CCC(=O)NC1=O)C2=O (stereo unspecified) [Lenalidomide] + Nc1nc2[nH]cc(CCc3ccc(C(=O)N[C@@H](CCC(=O)O)C(=O)O)cc3)c2c(=O)[nH]1 [Pemetrexed] (partner 0.2 µM) .
// result 0.738

// query State relative viability on NCI-H1355. Entry: Nc1cccc2c1CN(C1CCC(=O)NC1=O)C2=O (stereo unspecified) [Lenalidomide] + C[C@@H](Oc1cc(-c2cnn(C3CCNCC3)c2)cnc1N)c1c(Cl)ccc(F)c1Cl [Crizotinib] (partner 1 µM)
// result 0.923

// query # lookup: NCI-H1355 relative viability, key = Nc1cccc2c1CN(C1CCC(=O)NC1=O)C2=O (stereo unspecified) [Lenalidomide] + Nc1ncn([C@H]2C[C@H](O)[C@@H](CO)O2)c(=O)n1 [Decitabine] (partner 2 µM)
// result 0.341

// query Please tell me the measured relative viability for Nc1cccc2c1CN(C1CCC(=O)NC1=O)C2=O (stereo unspecified) [Lenalidomide] + CC(C)C[C@H](NC(=O)[C@H](Cc1ccccc1)NC(=O)c1cnccn1)B(O)O [Bortezomib] (partner 0.002 µM) ; system: NCI-H1355.
// result 1.03

// query Please report the measured relative viability for Nc1cccc2c1CN(C1CCC(=O)NC1=O)C2=O (stereo unspecified) [Lenalidomide] + O=C(CCCCCCC(=O)Nc1ccccc1)NO [Vorinostat] (partner 1 µM) tested on NCI-H1355.
// result 0.495

// query State measured relative viability of the molecule Nc1cccc2c1CN(C1CCC(=O)NC1=O)C2=O (stereo unspecified) [Lenalidomide] + NC(=O)Nc1cc(-c2cccc(F)c2)sc1C(=O)N[C@H]1CCCNC1 [AZD7762] (partner 0.2 µM) with NCI-H1355.
// result 0.696

###

# Tested on: NCI-H358
# TEST SUMMARY: relative viability (nuclei count vs DMSO), 5 days (fraction); higher = more cells survive
# ASSAY SETUP: first compound 0.03162 µM
RESULT TYPE: relative viability
Simply state the number, no unit and no words.

// query Find relative viability for Cc1cn(-c2cc(NC(=O)c3ccc(C)c(Nc4nccc(-c5cccnc5)n4)c3)cc(C(F)(F)F)c2)cn1 [Nilotinib] + Nc1ncn([C@H]2C[C@H](O)[C@@H](CO)O2)c(=O)n1 [Decitabine] (partner 2 µM) on NCI-H358 and write it down.
// result 0.195

// query Given Cc1cn(-c2cc(NC(=O)c3ccc(C)c(Nc4nccc(-c5cccnc5)n4)c3)cc(C(F)(F)F)c2)cn1 [Nilotinib] + CS(=O)(=O)N1CCN(Cc2cc3nc(-c4cccc5[nH]ncc45)nc(N4CCOCC4)c3s2)CC1 [Pictilisib] (partner 1 µM) , report its relative viability on NCI-H358.
// result 0.444

// query GET relative viability | system: NCI-H358 | item: Cc1cn(-c2cc(NC(=O)c3ccc(C)c(Nc4nccc(-c5cccnc5)n4)c3)cc(C(F)(F)F)c2)cn1 [Nilotinib] + O=C(CCCCCCC(=O)Nc1ccccc1)NO [Vorinostat] (partner 1 µM)
// result 0.411

// query Provide measured relative viability on NCI-H358 for Cc1cn(-c2cc(NC(=O)c3ccc(C)c(Nc4nccc(-c5cccnc5)n4)c3)cc(C(F)(F)F)c2)cn1 [Nilotinib] + CC(=O)c1c(C)c2cnc(Nc3ccc(N4CCNCC4)cn3)nc2n(C2CCCC2)c1=O [Palbociclib] (partner 0.5 µM) please.
// result 0.124

Provenance of the data: the supplement of paper PMC10307832
